testProtocol: chemical genetic growth profiling, strain panel (AID 1159580);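 also: tested at 20 µM; growth read once vehicle control cultures reached saturation at 30 °C; 1 = growth at the plate median or of vehicle wells; lower values mean less growth of the strain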
condition: S. cerevisiae deletion strains, growth OD, locus YDL101C, strain DUN1
Among all 5,500 compounds or so, about 2,000 (36%) were called active. Another 18% or so got no clear call; they are omitted. Rule as the data show it: active = normalized growth mostly below about 0.91 (no sharp cut-off); inconclusive = no clear call, values can overlap the other calls; inactive = mostly above about 0.92. Some of the results follow.
Answer with one of the outcomes active, inactive

Cc1ccc(N(CC2=NCCN2)c2cccc(O)c2)cc1 :: inactive
CC(=O)OCC1=C(C(=O)O)N2C(=O)[C@@H](NC(=O)CCCC(N)C(=O)O)C2SC1 (some centres undefined) :: inactive

QUERY: Tell me the recorded outcome of this test for `CCOc1cccc(C(=O)c2ccc(O)c(O)c2O)c1` .
RESULT: active

QUERY: I would be grateful if you could indicate the recorded call for CCCCCCCCCCCCCCCCCCOCC(O)CO (centres undefined) .
RESULT: inactive

QUERY: What classification did COc1cc2c(cc1OC)[C@@]13CCN4CC5=CCOC6CC(=O)N2C1[C@H]6[C@H]5C[C@H]43 (some centres undefined) end up with in this test?
RESULT: inactive

QUERY: Could you check what this test reported for `O=C(O)c1cc(=O)c2cccc(O)c2[nH]1` ?
RESULT: inactive

QUERY: Test call for this compound, please: `O=C(Nc1cccnc1)c1cccc(Cl)c1Cl`
RESULT: inactive

====

testProtocol: chemical genetic growth profiling, strain panel (AID 1159580);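 also: tested at 20 µM; growth read once vehicle control cultures reached saturation at 30 °C; 1 = growth at the plate median or of vehicle wells; lower values mean less growth of the strain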
condition: S. cerevisiae deletion strains, growth OD, locus YLR357W, strain rsc2
The campaign covered roughly 5,500 compounds. About 2,000 (36%) were called active. Another 18% or so got no clear call; they are omitted. Cut-off read from the data, not from the text of the source: active = normalized growth mostly below about 0.91 (no sharp cut-off); inconclusive = no clear call, values can overlap the other calls; inactive = mostly above about 0.92. Some of the results follow.
Respond with a class label; see active, inactive

NC[C@H]1O[C@H](O[C@H]2C(O[C@@H]3O[C@H](CO)[C@@H](O)[C@H]3O)[C@@H](O)[C@H](N)C[C@@H]2N)[C@H](N)[C@@H](O)[C@@H]1O (some centres undefined) :: inactive
CN(C)C(=N)N=C(N)N :: inactive
c1ccc([C@H]2CN3CCSC3=N2)cc1 :: inactive
CCOc1ccc(C(=O)c2ccc(O)c(O)c2O)cc1 :: active

QUERY: Per the records of this test, what outcome belongs to CC(=O)OCC1=C(C(=O)O)N2C(=O)[C@@H](NC(=O)CCCC(N)C(=O)O)C2SC1 (some centres undefined) ?
RESULT: inactive

QUERY: Look up the recorded call for CC(=O)O[C@@H]1CC[C@]2(C)C3CC[C@]4(C)C(=O)CCC4C3CC[C@H]2C1 (some centres undefined) in this test.
RESULT: inactive

====

testProtocol: chemical genetic growth profiling, strain panel (AID 1159580);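 also: tested at 20 µM; growth read once vehicle control cultures reached saturation at 30 °C; 1 = growth at the plate median or of vehicle wells; lower values mean less growth of the strain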
condition: S. cerevisiae deletion strains, growth OD, locus YKL085W, strain MDH1 (second series), active compounds read low
Out of some 5,500 compounds screened, about 2,000 (36%) were called active. Roughly 18% stayed inconclusive and do not appear here. Some of the results follow. Where a SMILES comes first, the peptide text is derived from it. Bridges are numbered along the chain shown (N, C = ends). [ ]: non-standard residue; d: D form. The star is where a group is joined. Octanoyl(6-Me) = CCC(C)CCCCC(=O)*; Dab = NCC[CH](N)C(=O)O
propertyMeasured: normalized growth

Example compounds with recorded normalized growth:
CC1(C)C(=O)[C@@H]2C[C@@]3(O)C4=CC(=O)O[C@@H](c5ccoc5)[C@]4(C)CCC3[C@@](C)(C2=O)[C@H]1CC(=O)O (some centres undefined) :: 0.99 (inactive)
CC(=O)N[C@@H](Cc1c[nH]c2ccccc12)C(=O)O :: 1.01 (inactive)
CO[C@H]1C[C@H](O[C@H]2[C@H](C)[C@@H](OC3O[C@H](C)C[C@H](N(C)C)[C@H]3OC(C)=O)[C@@H](C)C[C@]3(CO3)C(=O)[C@H](C)[C@@H](OC(C)=O)[C@@H](C)[C@@H](C)OC(=O)[C@@H]2C)O[C@@H](C)[C@@H]1OC(C)=O (some centres undefined) :: 0.989 (inactive)
CC(=O)OCC(=O)[C@@]1(O)CCC2C3CCC4=CC(=O)CC[C@]4(C)C3[C@@H](O)C[C@@]21C (some centres undefined) :: 1 (inactive)

Attention now shifts to the item below.
QUERY: Recorded normalized growth for CCC(C)CCCCC(=O)NC(CCN)C(=O)NC(C(=O)NC(CCN)C(=O)NC1CCNC(=O)C(C(C)O)NC(=O)C(CCN)NC(=O)C(CCN)NC(=O)C(CC(C)C)NC(=O)C(Cc2ccccc2)NC(=O)C(CCN)NC1=O)C(C)O (centres undefined) ({Octanoyl(6-Me)}-[Dab]T[Dab][Dab][Dab]FL[Dab][Dab]T; lactam 4-C; configuration not given here) , please?
RESULT: 0.998 (inactive)
